Molecular target: T1, human serum albumin (human, UniProt P02768 25-609)
T1 construct: mature; Bought protein; biotinylated in the Octet and HTRF assays; also called HSA; HuSA
Assay: SPR (Biacore), immobilised HSA, Affimer analyte
endpoint.label: Kd (nM)

binder="AVA04-261 XT9 (designed binder) MIPRGLSEAKPATPEIQEIVDKVKPQLEEKTNETYGKLEAVQYKTQVLAHAYGPRDWDSTNYYIKVRAGDNKYMHLKVFNGPPADHVLEEAADRVLTGYQVDKNKDDELTGFGGGGSGGGGSGGGGSGGGGSGGGGSGGGGSMIPRGLSEAKPATPEIQEIVDKVKPQLEEKTNETYGKLEAVQYKTQVLANFFQRRWPGSTNYYIKVRAGDNKYMHLKVFNGPWKFRNTDRGADRVLTGYQVDKNKDDELTGFHHHHHH" endpoint_label=Kd reading_unit=nM readout_number=13.3

These entries and their values trace back to patent US20230272011A1.
